Entries annotated with measured normalized growth
# measurement.description: chemical genetic growth profiling, strain panel (AID 1159580);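 note: tested at 20 µM; growth read once vehicle control cultures reached saturation at 30 °C; 1 = growth at the plate median or of vehicle wells; lower values mean less growth of the strain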
# cond: S. cerevisiae deletion strains, growth OD, locus YLR085C, strain ARP6, stronger effect = lower value
In all, about 5,500 compounds went through this assay and about 2,000 (36%) were called active. Another 18% or so got no clear call; they are omitted. The list shows a part of the results.
Keep the answer to the number alone.

Sample records with normalized growth:
N#CCS(=O)(=O)c1cccs1 : 0.999
Cc1ccc(S(=O)(=O)N2CCC(N)=N2)cc1 : 1.02

Input: Endpoint output: normalized growth of O=C(NC1CCCCC1)N1CCN(c2ncccc2C(F)(F)F)CC1 . Value?
Output: 0.996

Input: Endpoint output: normalized growth of N#CCCN1C(=O)C2(OCCO2)c2ccccc21 . Value?
Output: 1.02

Input: Endpoint output: normalized growth of CC(=O)c1ccccc1OC(=O)c1c(-c2c(Cl)cccc2Cl)noc1C . Value?
Output: 0.985

Input: Endpoint output: normalized growth of O=C(O)c1oc(C(=O)O)c(OCc2ccccc2)c1OCc1ccccc1 . Value?
Output: 1.01

* * *

# measurement.description: chemical genetic growth profiling, strain panel (AID 1159580);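 note: tested at 20 µM; growth read once vehicle control cultures reached saturation at 30 °C; 1 = growth at the plate median or of vehicle wells; lower values mean less growth of the strain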
# cond: S. cerevisiae deletion strains, growth OD, locus YPR025C, strain CCL1
Among all 5,500 compounds or so, about 2,000 (36%) were called active. Roughly 18% stayed inconclusive and do not appear here. Cut-off read from the data, not from the text of the source: active = normalized growth mostly below about 0.91 (no sharp cut-off); inconclusive = no clear call, values can overlap the other calls; inactive = mostly above about 0.92. The list shows a part of the results.
A correct response names exactly one class from True = active, False = inactive

O=C(Nc1ccc(SC(F)(F)F)cc1)Nc1ccc(Oc2cccc(C(F)(F)F)c2)nc1 : False
CCOC(=O)NC(=S)Nc1ccc(C(C)(C)C)cc1NC(=S)NC(=O)OCC : False

Now look at this one.
Input: Could you kindly confirm the outcome this assay logged for O=C(NC(=S)NNc1ncc(C(F)(F)F)cc1Cl)c1cccs1 ?
Output: True

* * *

# measurement.description: chemical genetic growth profiling, strain panel (AID 1159580);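 note: tested at 20 µM; growth read once vehicle control cultures reached saturation at 30 °C; 1 = growth at the plate median or of vehicle wells; lower values mean less growth of the strain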
# cond: S. cerevisiae deletion strains, growth OD, locus YNL322C, strain KRE1, stronger effect = lower value
Out of some 5,500 compounds screened, about 2,000 (36%) were called active. Another 18% or so got no clear call; they are omitted. The list shows a part of the results.
readout.name: normalized growth
Keep the answer to the number alone.

Sample records with normalized growth:
CC(=O)c1ccccc1OC(=O)c1c(-c2c(Cl)cccc2Cl)noc1C : 1.01
CC1(C)[C@@H]2CC[C@@]1(C)C(=O)C2 : 0.985
NC(=S)CS(=O)(=O)c1ccc(C(F)(F)F)cc1 : 1

Input: Endpoint output: normalized growth of CC1(C)O[C@@H]2CC3C4C[C@H](F)C5=CC(=O)CC[C@]5(C)C4[C@@H](O)C[C@]3(C)[C@]2(C(=O)CO)O1 (some centres not stated) . Value?
Output: 1.02

* * *

# measurement.description: chemical genetic growth profiling, strain panel (AID 1159580);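 note: tested at 20 µM; growth read once vehicle control cultures reached saturation at 30 °C; 1 = growth at the plate median or of vehicle wells; lower values mean less growth of the strain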
# cond: S. cerevisiae deletion strains, growth OD, locus YLR027C, strain aat2, stronger effect = lower value
The campaign covered roughly 5,500 compounds. About 2,000 (36%) were called active. Inconclusive results (about 18%) are left out. This is one part of the list.
Entries annotated with measured normalized growth
Keep the answer to the number alone.

Sample records with normalized growth:
COc1ccc(-c2cc(=O)c3c(O)cc(O)c(-c4cc(-c5cc(=O)c6c(O)cc(O)cc6o5)ccc4OC)c3o2)cc1 : 1
COc1cc(O)c2c(=O)cc(-c3ccc(OC)c(-c4c(O)cc(O)c5c(=O)cc(-c6ccc(O)cc6)oc45)c3)oc2c1 : 1.01

Next up:
Input: Endpoint output: normalized growth of COc1ccc(-c2cc(=O)c3c(O)c(OC)c(OC)c(OC)c3o2)cc1OC . Value?
Output: 0.997
